Tested on: HOP-62 NSCLC
Experiment: NCI tumour cell line growth inhibition, 48 h
experimental_endpoint: TGI

>>> observed_value("CC1CC(=NC2CCCCC2)Nc2ccccc2N1Cc1ccccc1 (stereo unspecified)")
"20.3 µM"
>>> observed_value("Cc1ccc(C2[C@H]3C(=O)N(c4ccc(Cc5ccc(N6C(=O)[C@@H]7ON(c8ccccc8)C(c8ccc(C)cc8)[C@@H]7C6=O)cc5)cc4)C(=O)[C@H]3ON2c2ccccc2)cc1 (stereo partly specified)")
"> 100 µM"
>>> observed_value("COc1ccc(/C=C2\\Sc3nnc(-c4ccccc4)n3N=C2c2cc(F)c(Cl)cc2Cl)cc1OC")
"> 100 µM"

Then there is this compound:
Quick note, TGI for C[C@]12Cc3conc3C(O)=C1CC[C@@H]1C2CC[C@@]2(C)C1CC[C@]2(C)O (stereo partly specified) landed at 64.2 µM

* * *

Measured GI50 of individual entries
System: SNB-19 CNS
Experiment: NCI tumour cell line growth inhibition, 48 h

Below, each entry is followed by its recorded GI50 result.
>>> observed_value("COc1cc(C2c3cc4c(cc3[C@@H](Nc3ccc([N+](=O)[O-])cc3)C3COC(=O)[C@H]23)OCO4)cc(OC)c1O (stereo partly specified)")
"0.481 µM"
>>> observed_value("O=c1cc(-c2ccccc2)oc2cc(OCCCCCN3CCOCC3)cc(O)c12")
"23.9 µM"
>>> observed_value("CNCC(=O)NC(CO)C(=O)NC(CO)C(=O)NC1C(C(N)=O)OC(n2ccc(N)nc2=O)C(O)C1O (stereo unspecified)")
"6.5 µg/mL"
>>> observed_value("Cc1cc(Cl)nc(N(CCCNc2ccnc3cc(Cl)ccc23)Cc2cccs2)n1")
"2.35 µM"
>>> observed_value("COc1cccc(N2CCN(c3ncnc4cc[nH]c34)CC2)c1")
"> 100 µM"

get_value(item= CC(=O)O[C@@H]1C2=C(C)C3(CC3)[C@@](C)(O)C(=O)C2=C[C@@]1(C)CO , readout=GI50) returns 1.08 µM

# GI50 (compound: COc1cc2c3c(n(CCN4CCOCC4)c(=O)c2cc1OC)-c1ccccc1C3=O ) is > 100 µM

Measured GI50 of O=C1c2ccn(CCCNC(CO)(CO)CO)c2C(=O)c2c1c(O)c1ccccc1c2O : 36.3 µM

According to the records, this compound Cc1cc2c3c([n+](C)c4ccc(F)cc4c3c1)-c1cc(F)ccc1N2C displays GI50 of 4.13 µM

Form: compound = C=C1C(=O)O[C@H]2[C@H]1CC/C(COC(=O)CCCCCCCC(=O)OC/C1=C/CC[C@@]3(C)O[C@H]3[C@H]3OC(=O)C(=C)[C@@H]3CC1)=C\CC[C@@]1(C)O[C@@H]21 ; GI50 = 4.85 µM

The measured GI50 associated with O=C(NCc1ccco1)C1CCN(S(=O)(=O)c2ccc(Cl)cc2)CC1 reads > 100 µM

* * *

Tested on: U251 CNS
Assay: NCI tumour cell line growth inhibition, 48 h
experimental_endpoint: GI50

// known answers, use as guide
>>> observed_value("Cc1cc2c3c([n+](C)c4ccc(F)cc4c3c1)-c1cc(F)ccc1N2C")
"1.69 µM"
>>> observed_value("Cc1ccc(N=Nc2c(O)ccc3n[nH]nc23)cc1")
"11.4 µM"
>>> observed_value("C=C1C(=O)O[C@H]2[C@H]1CC/C(COC(=O)CCCCCCCC(=O)OC/C1=C/CC[C@@]3(C)O[C@H]3[C@H]3OC(=O)C(=C)[C@@H]3CC1)=C\\CC[C@@]1(C)O[C@@H]21")
"2.13 µM"

Lookup result for COc1cc(C2c3cc4c(cc3[C@@H](Nc3ccc([N+](=O)[O-])cc3)C3COC(=O)[C@H]23)OCO4)cc(OC)c1O (some centres undefined) ; measured GI50: 0.418 µM

Notebook: COC(=O)c1ccc(NC(=O)c2ccc(NC3=C(Cl)C(=O)N(Cc4ccccc4)C3=O)cc2)cc1 , GI50 read as 9.63 µM

Given item Cn1cc(C2=C(c3cc[nH]c3)C(=O)NC2=O)c2ccccc21 , the value recorded as its GI50 is > 25 µM

Value of measured GI50 for the entry COCCNCc1ccc(-c2cc3nccc(Oc4ccc(NC(=O)C5(C(=O)Nc6ccc(F)cc6)CC5)cc4F)c3s2)nc1 : 1.89 µM

The measured GI50 associated with Cc1nn(Cc2ccccc2)cc1C(=O)Nc1sc2c(c1C(N)=O)CCC(=O)C2 reads 2.62 µM

GET /value?item= C=CCC(N[C@H](CO)c1ccccc1)c1ccccn1 (some centres undefined) &field=GI50 returns > 100 µM

Record CNCC(=O)NC(CO)C(=O)NC(CO)C(=O)NC1C(C(N)=O)OC(n2ccc(N)nc2=O)C(O)C1O (centres undefined) , field GI50: 10.9 mg/L

So, C(=C\c1ccncc1)/c1ccncc1 ? Its GI50 was > 100 µM

# GI50 (compound: O=C1C(Cl)=C(Nc2cc(Cl)ccc2O)C(=O)N1Cc1ccccc1 ) is 15.8 µM

Reported GI50 for CC(C)(O)CCc1cccc(C(=O)c2cnn(-c3ccc(F)cc3)c2N)c1 was > 25 µM

GI50 for CCC[CH2][Sn]([CH2]CCC)([O]C(=O)c1cc(F)ccc1F)[O]C(=O)c1cc(F)ccc1F is 0.888 µM

Quick note, GI50 for Cc1cc(Cl)nc(N(CCCNc2ccnc3cc(Cl)ccc23)Cc2cccs2)n1 landed at 2.18 µM

So for CC(=O)O[C@@H]1C2=C(C)C3(CC3)[C@@](C)(O)C(=O)C2=C[C@@]1(C)CO , the logged GI50 turned out to be 0.396 µM

Recorded result, COC(=O)c1c2c(c(C)[n+]([O-])c1C)C(=O)C(NCc1ccc(F)cc1)=CC2=O , GI50: 1.81 µM

Summary for this compound, CCC[n+]1cc2cc3c(cc2c2c1-c1cc4c(cc1C2)OCO4)OCO3 (tested in a mixture with another compound) : GI50 is 0.229 µM

Form field GI50, entry Cc1c(Cl)cccc1NC(=O)c1sc2nc3c(cc2c1N)C(=O)CCC3 : 0.0836 µM
